Assay: TIMS collisional cross section (CCS, N2) of the lipid ion; higher = larger ion cross section
Conditions: sample type: HeLa; ionization mode: positive; one isomer drawn
measurement_type: TIMS collisional cross section (Å²)

compound	measurement_type	measurement_unit	reading
CCCCCCCC/C=C\CCCCCCCCCCCC(=O)OC[C@@H](COC(=O)CCCCCCC/C=C\CCCCCCCC)OC(=O)CCCCCCCCCCC/C=C\CCCCCCCC [TG 18:1_22:1_22:1] (ion (formula + adduct): [C65H120O6+NH4] 1+)	TIMS collisional cross section	Å²	349.2
CCCCC/C=C\C/C=C\CCCCCCCC(=O)OC[C@H](COP(=O)(O)OCCN)OC(=O)CCCCCCC/C=C\CCCCCC [PE 18:2@_16:1] (ion (formula + adduct): [C39H72NO8P+H] 1+)	TIMS collisional cross section	Å²	270
CC/C=C\C/C=C\C/C=C\C/C=C\C/C=C\CCCCCC(=O)OC[C@@H](COC(=O)CCCCCCCCCCCCCCC)OC(=O)CCCCCCC/C=C\CCCCCCC [TG 16:0_17:1_22:5] (ion (formula + adduct): [C58H100O6+NH4] 1+)	TIMS collisional cross section	Å²	325.4
CCCCCCCC/C=C\CCCCCCCC(=O)OC[C@H](COP(=O)([O-])OCC[N+](C)(C)C)OC(=O)CCCCCCCCC/C=C\CCCCCCCCCC [PC 18:1_22:1@] (ion (formula + adduct): [C48H92NO8P+H] 1+)	TIMS collisional cross section	Å²	304.8

* * *

Overview of reported TIMS collisional cross section across a group of compounds:
Test: TIMS collisional cross section (CCS, N2) of the lipid ion; higher = larger ion cross section
Conditions: sample type: Liver; ionization mode: positive; one isomer drawn
measurement_type: TIMS collisional cross section (Å²)

compound	reading
CCCCC/C=C\C/C=C\C/C=C\C/C=C\C/C=C\CCC(=O)O[C@H](COC(=O)CCCCCCCCCCCCCCC)COP(=O)([O-])OCC[N+](C)(C)C [PC 16:0_22:5@] (ion (formula + adduct): [C46H82NO8P+H] 1+)	292.7
CCCCCCCCCCCCCCCCCC(=O)OC[C@@H](COC(=O)CCCCCCCCCCCCC)OC(=O)CCCCCCCCCCCCCCC [TG 14:0_16:0_18:0] (ion (formula + adduct): [C51H98O6+NH4] 1+)	314.3
CCCCC/C=C\C/C=C\CCCCCCCC(=O)OC[C@@H](O)COP(=O)(O)OCCN [LPE 18:2] (ion (formula + adduct): [C23H44NO7P+H] 1+)	211.45
CCCCC/C=C\C/C=C\C/C=C\C/C=C\CCCCCC(=O)O[C@@H](CO)COC(=O)CCCCCCCCCCCCCCC [DG 16:0_22:4_0:0] (ion (formula + adduct): [C41H72O5+NH4] 1+)	270.8
CC/C=C\C/C=C\C/C=C\C/C=C\C/C=C\C/C=C\CCC(=O)O[C@H](COC(=O)CCCC/C=C\C/C=C\C/C=C\CCCCC)COP(=O)(O)OCCN [PE 18:3_22:6] (ion (formula + adduct): [C45H72NO8P+H] 1+)	276.7
CCCCCCCC/C=C\CCCCCCCCCCCC(=O)OC[C@@H](COC(=O)CCCCCCCCCCCCCCC)OC(=O)CCCCCCC/C=C\CCCCCCCC [TG 16:0_18:1_22:1] (ion (formula + adduct): [C59H110O6+NH4] 1+)	334.2
CC/C=C\C/C=C\C/C=C\C/C=C\C/C=C\C/C=C\CCC(=O)OC[C@@H](COC(=O)CCCCCCCCCCCCCCCCC)OC(=O)CCCCCCC/C=C\CCCCCCCC [TG 18:0_18:1_22:6] (ion (formula + adduct): [C61H104O6+NH4] 1+)	333.4
CCCCCC/C=C\CCCCCCCC(=O)OC[C@@H](COC(=O)CCCCCCCCCCCCCC)OC(=O)CCCCCCCCCCCCCCC [TG 15:0_16:0_16:1] (ion (formula + adduct): [C50H94O6+NH4] 1+)	309.02
CCCCC/C=C\C/C=C\CCCCCCCC(=O)OC[C@H](COC(=O)CCCCCCCCC/C=C\CCCCCCCC)OC(=O)CCCCCCC/C=C\CCCCCCCCC [TG 18:2_19:1_20:1] (ion (formula + adduct): [C60H108O6+NH4] 1+)	332.8
